Experiment: in vitro
Details: human, hek293t cells
Values of viability at 48 h, 25 µM strictly less than 70% map to t, and values of at least 70% map to f.

Challenge: Hi there! Is viability at 48 h, 25 µM for NC(=O)CCc1ccc(C(=O)CCl)cc1 [10-I03, 3-[4-(2-chloroacetyl)phenyl]propanamide] below 70%, do you know?
Response given: t

Challenge: Would you mind doing N#CCCN(C(=O)CCl)c1ccccc1 [6-I12] as well?
Response given: t

Challenge: Would you mind doing COc1ccc(C=C(C#N)C(=O)Nc2cccc3c2C(=O)NC3=O)cc1 [8-F13] as well?
Response given: f

Challenge: Would you mind doing CCCCNC(=O)C(C#N)=Cc1cccc(Cl)c1Cl [9-H11] as well?
Response given: t

Challenge: Would you mind doing CCn1nc(C)c(CN(C)C(=O)CCl)c1C [5-A10] as well?
Response given: t

Challenge: Would you mind doing C=CC(=O)N1CCCC1c1cc(C)no1 (centres unmarked) [3-G12] as well?
Response given: f

Challenge: Would you mind doing N#CC(=Cc1cnn(-c2ccc(Cl)cc2)c1)C(=O)NC1CCCC1 [8-M10] as well?
Response given: f

Challenge: Would you mind doing CC(Cc1ccc(Cl)s1)NC(=O)CCl (centres unmarked) [5-N11] as well?
Response given: t

Challenge: Would you mind doing COc1ccc(C(=O)C(C)Cl)c(OC)c1 (centres unmarked) [10-J17] as well?
Response given: f

* * *

Experiment: in vitro
Conditions: human, hek293t cells
Lab note: class by viability at 48 h, 25 µM, see bucket 1: < 70%; bucket 2: ≥ 70% and < 90%; bucket 3: ≥ 90%

Challenge: In plain terms, what class is CC(C)C(C)N(Cc1ccns1)C(=O)CCl (stereo not shown) ?
Response given: bucket 1

Challenge: Would you mind doing C=CC(=O)NCc1c(F)cccc1S(=O)(=O)N(C)C as well?
Response given: bucket 2

Challenge: Would you mind doing COc1cccc(NC(=O)C(C#N)=Cc2ccc(C#N)cc2)c1 as well?
Response given: bucket 1

Challenge: Would you mind doing C#CCN(C(=O)c1ccc(NC(=O)C=C)cc1)C1CCCCC1 as well?
Response given: bucket 1

Challenge: Would you mind doing Cc1nn(-c2ccccc2)c(C)c1CN(C)C(=O)CCl as well?
Response given: bucket 1

Challenge: Would you mind doing CC(=O)NC1Cc2ccccc2N(C(=O)CCl)C1 (stereo not shown) as well?
Response given: bucket 1

Challenge: Would you mind doing CC(=O)Nc1ccc(C=C(C#N)C(=O)NC2CCCCC2)cc1 as well?
Response given: bucket 3

Challenge: Would you mind doing N#CC(=Cc1ccc(Cl)cc1)C(=O)NCc1ccccc1 as well?
Response given: bucket 3

Challenge: Would you mind doing O=C(CCl)NC(c1ccccc1)c1ccco1 (stereo not shown) as well?
Response given: bucket 1

Challenge: Would you mind doing Cc1ccsc1C=C(C#N)C(=O)Nc1c(Cl)cccc1Cl as well?
Response given: bucket 2

Challenge: Would you mind doing Cc1c(NC(=O)C(C)Cl)c(=O)n(-c2ccccc2)n1C (stereo not shown) as well?
Response given: bucket 3

Challenge: Would you mind doing O=C1C=CC(=O)N1C1CNC1 as well?
Response given: bucket 2

Challenge: Would you mind doing C=CC(=O)N1CCC(C(=O)N2CCC(OC)(C(F)(F)F)CC2)CC1 as well?
Response given: bucket 3

Challenge: Would you mind doing C=CC(=O)NCc1nc(C(C)(C)O)n[nH]1 as well?
Response given: bucket 3

Challenge: Would you mind doing C=CC(=O)NC1CCSC(C)C1 (stereo not shown) [1-J06, N-(2-methylthian-4-yl)prop-2-enamide] as well?
Response given: bucket 2

Challenge: Would you mind doing COc1cc(C=C(C#N)C(=O)Nc2c(C)cc(C)cc2C)cc(OC)c1 as well?
Response given: bucket 1

Challenge: Would you mind doing Cc1cccc(C)c1NC(=O)C(C#N)=Cc1c(C)n[nH]c1C as well?
Response given: bucket 1

Challenge: Would you mind doing C=CC(=O)Nc1cc(OC)cc(S(C)(=O)=O)c1 as well?
Response given: bucket 2

Challenge: Would you mind doing C=CC(=O)NCc1noc2c1CCCC2 as well?
Response given: bucket 2

Challenge: Would you mind doing Cc1ccc(S(=O)(=O)N2CCCCC2)cc1NC(=O)CCl as well?
Response given: bucket 1

Challenge: Would you mind doing COc1cc(C=C(C#N)C(=O)Nc2ccc(C)cc2)cc(Cl)c1O as well?
Response given: bucket 3

Challenge: Would you mind doing Cc1ccc(CNC(=O)c2ccccc2NC(=O)CCl)cc1 as well?
Response given: bucket 3

Challenge: Would you mind doing CCCCNC(=O)C(C#N)=Cc1ccc(F)cc1F as well?
Response given: bucket 3

Challenge: Would you mind doing CN(C)c1ccc(C=C(C#N)C(=O)Nc2ccccc2C(=O)O)cc1 as well?
Response given: bucket 3

Challenge: Would you mind doing C=CC(=O)NCc1cn(C(F)F)c2ccccc12 as well?
Response given: bucket 1

Challenge: Would you mind doing C=CC(=O)NC1CN(C(C)=O)C1 [1-N22, N-(1-acetylazetidin-3-yl)prop-2-enamide] as well?
Response given: bucket 2

Challenge: Would you mind doing C=CC(=O)N(C)CC(=O)NC1CCCN(c2cc(C)nc(C)n2)C1 (stereo not shown) as well?
Response given: bucket 2

Challenge: Would you mind doing C=CC(=O)N1CCCC1(COC)C(N)=O (stereo not shown) as well?
Response given: bucket 3

Challenge: Would you mind doing CCOC=C(C#N)C(=O)N1CCN(S(=O)(=O)c2cc[nH]n2)CC1 as well?
Response given: bucket 3

Challenge: Would you mind doing C=CC(=O)N(C)CC(=O)N1CCN(c2ccccc2[N+](=O)[O-])CC1 as well?
Response given: bucket 2

Challenge: Would you mind doing O=C(CCl)NCCSc1ccccc1 as well?
Response given: bucket 1

Challenge: Would you mind doing C=CC(=O)N(Cc1c(C)cccc1C)C1CCc2nc(C)nn2C1 (stereo not shown) as well?
Response given: bucket 3

Challenge: Would you mind doing CC(Cl)C(=O)Nc1sccc1C#N (stereo not shown) as well?
Response given: bucket 1

Challenge: Would you mind doing C=CC(=O)Nc1ccc(C(N)=O)cc1C [1-P06, 3-methyl-4-(prop-2-enamido)benzamide] as well?
Response given: bucket 2

Challenge: Would you mind doing C=CC(=O)Nc1ccc(C(C)CC(N)=O)cc1 (stereo not shown) [1-I16, 3-[4-(prop-2-enamido)phenyl]butanamide] as well?
Response given: bucket 2

Challenge: Would you mind doing C=CC(=O)N1CCC(C(=O)N2CCCC2C2OCCO2)CC1 (stereo not shown) as well?
Response given: bucket 1

Challenge: Would you mind doing CC(Cl)C(=O)NC(=O)Nc1ccccc1 (stereo not shown) as well?
Response given: bucket 3

Challenge: Would you mind doing Cc1cccc(N(Cc2ccccc2)C(=O)CCl)c1 as well?
Response given: bucket 1

Challenge: Would you mind doing CC(Cl)C(=O)NCCc1nnc2n1CCCCC2 (stereo not shown) as well?
Response given: bucket 3
